Experiment: solubility of CBD in water and other aqueous solvents with Captisol (SAE-CD) and/or added polymers, surfactants, pH
Type: physicochemical
Conditions: aqueous solvent, aqueous with cosolvent or surfactant or cyclodextrin, Captisol 0%, 1% Tween 80
Experimental endpoint: solubility (µg/mL)
Give just the numeric value; µg/mL need not be written.

Query: Param item = C=C(C)[C@@H]1CCC(C)=C[C@H]1c1c(O)cc(CCCCC)cc1O ; retrieve measured solubility.
Response: 4200

----------
Test: solubility of CBD in water and other aqueous solvents with Captisol (SAE-CD) and/or added polymers, surfactants, pH
Format: physicochemical
Settings: aqueous solvent, aqueous with cosolvent or surfactant or cyclodextrin, Captisol 0%, 1% PVP
Experimental endpoint: solubility (µg/mL)
Give just the numeric value; µg/mL need not be written.

Query: Param item = C=C(C)[C@@H]1CCC(C)=C[C@H]1c1c(O)cc(CCCCC)cc1O [CBD, cannabidiol] ; retrieve measured solubility.
Response: 602

----------
Experiment: solubility of CBD in water and other aqueous solvents with Captisol (SAE-CD) and/or added polymers, surfactants, pH
Assay type: physicochemical
Conditions: aqueous solvent, aqueous with cosolvent or surfactant or cyclodextrin, Captisol 20%, 1% CMC
Experimental endpoint: solubility (µg/mL)
Give just the numeric value; µg/mL need not be written.

Query: Param item = C=C(C)[C@@H]1CCC(C)=C[C@H]1c1c(O)cc(CCCCC)cc1O ; retrieve measured solubility.
Response: 1710

----------
Test: solubility of CBD in water and other aqueous solvents with Captisol (SAE-CD) and/or added polymers, surfactants, pH
Type: physicochemical
Details: aqueous solvent, pH 2, aqueous with cosolvent or surfactant or cyclodextrin, Captisol 20%, pH ~2
Description: In some embodiments the addition of water soluble polymers and/or surfactants increases the solubility of the CBD/Captisol mixture. Therefore, in some embodiments the formulations may include the addition of these or other ingredients as solubility enhancers.
Experimental endpoint: solubility
Express your answer as a number followed by its unit.

Query: Param item = C=C(C)[C@@H]1CCC(C)=C[C@H]1c1c(O)cc(CCCCC)cc1O [CBD, cannabidiol] ; retrieve measured solubility.
Response: 2480 µg/mL

----------
Assay: solubility of CBD in water and other aqueous solvents with Captisol (SAE-CD) and/or added polymers, surfactants, pH
Assay type: physicochemical
Conditions: aqueous solvent, aqueous with cosolvent or surfactant or cyclodextrin, Captisol 0%, 1% CrEL
Source text: In some embodiments the addition of water soluble polymers and/or surfactants increases the solubility of the CBD/Captisol mixture. Therefore, in some embodiments the formulations may include the addition of these or other ingredients as solubility enhancers.
Experimental endpoint: solubility (µg/mL)
Give just the numeric value; µg/mL need not be written.

Query: Param item = C=C(C)[C@@H]1CCC(C)=C[C@H]1c1c(O)cc(CCCCC)cc1O ; retrieve measured solubility.
Response: 8960

----------
Test: solubility of CBD in water and other aqueous solvents with Captisol (SAE-CD) and/or added polymers, surfactants, pH
Type: physicochemical
Settings: aqueous solvent, water, Captisol 0%, additive None
Experimental endpoint: solubility
Express your answer as a number followed by its unit.

Query: Param item = C=C(C)[C@@H]1CCC(C)=C[C@H]1c1c(O)cc(CCCCC)cc1O [CBD, cannabidiol] ; retrieve measured solubility.
Response: 0.26 µg/mL

----------
Assay: solubility of CBD in water and other aqueous solvents with Captisol (SAE-CD) and/or added polymers, surfactants, pH
Type: physicochemical
Conditions: aqueous solvent, aqueous with cosolvent or surfactant or cyclodextrin, Captisol 0%, 1% HPMC
Experimental endpoint: solubility (µg/mL)
Give just the numeric value; µg/mL need not be written.

Query: Param item = C=C(C)[C@@H]1CCC(C)=C[C@H]1c1c(O)cc(CCCCC)cc1O ; retrieve measured solubility.
Response: 590

----------
Assay: solubility of CBD in water and other aqueous solvents with Captisol (SAE-CD) and/or added polymers, surfactants, pH
Type: physicochemical
Details: aqueous solvent, aqueous with cosolvent or surfactant or cyclodextrin, Captisol 40%, 0.5% Tween 80
Experimental endpoint: solubility (µg/mL)
Give just the numeric value; µg/mL need not be written.

Query: Param item = C=C(C)[C@@H]1CCC(C)=C[C@H]1c1c(O)cc(CCCCC)cc1O ; retrieve measured solubility.
Response: 2020
